Each record here notes measured inhibition at 10 µM.
# System: SN40R2 cells
# assay_notes: Protocol B: SN40R2 CellTiter-Glo luminescent cell viability assay
# experimental_setup: read-out: SN40R2 % inhibition at 10, Protocol B, SN40R2, at 10 μM

| compound | inhibition at 10 µM [%] |
| --- | --- |
| CCC(O)(c1cc(F)c2c(c1)C(=O)N(Cc1ncc(C#N)cn1)[C@@]2(OCC1(C#N)CC1)c1ccc(Cl)cc1)c1cn(C)cn1 (single isomer, unassigned) | 4 |
| CCC(O)(c1cc(F)c2c(c1)C(=O)N(Cc1ncc(C#N)cn1)[C@@]2(OC)c1ccc(Cl)cc1)C1(F)CCN(C)CC1 (single isomer, unassigned) | 14 |
| CCCC(O)(c1cc(F)c2c(c1)C(=O)N(Cc1ccc(C#N)cn1)[C@@]2(O[C@H]1CCOC1)c1ccc(Cl)cc1)c1cn(C)cn1 (single isomer, unassigned) | 10 |

----------
# System: SN40R2 cells (p53 mutated, MDM2 amplified osteosarcoma)
# assay_notes: Protocol A: SN40R2 growth inhibition (sulphorhodamine B)
# experimental_setup: 72 h, read-out: SN40R2 IC50 (μM) (Protocol A)

| compound | IC50 |
| --- | --- |
| CC(C)(O)c1cc(F)c2c(c1)C(=O)N(Cc1ccc(Cl)cc1)[C@@]2(OCC1(CO)CC1)c1ccc(Cl)cc1 | 17 µM |

----------
Each record here notes measured inhibition at 50 µM.
# Tested on: SN40R2 cells (p53 mutated, MDM2 amplified osteosarcoma)
# assay_notes: Protocol A: SN40R2 growth inhibition (sulphorhodamine B)
# experimental_setup: read-out: SN40R2 % inhibition at 50

| molecule | subject_of_test | inhibition at 50 µM, % |
| --- | --- | --- |
| CCC(O)(c1cc(F)c2c(c1)C(=O)N(Cc1ccc(C#N)cn1)[C@@]2(OC1CC(O)C1)c1ccc(Cl)cc1)[C@H]1CC[C@H](O)CC1 (stereo partly shown) | SN40R2 cells (p53 mutated, MDM2 amplified osteosarcoma) | 46 |
| CCC(O)(c1cc(F)c2c(c1)C(=O)N(Cc1ccc(C#N)cn1)[C@@]2(OCCOC)c1ccc(Cl)cc1)c1cn(C)cn1 (single isomer, unassigned) | SN40R2 cells (p53 mutated, MDM2 amplified osteosarcoma) | 33 |
| CCC(O)(c1cc(F)c2c(c1)C(=O)N(Cc1ccc(C#N)nc1)[C@@]2(O[C@H]1CCOC1)c1ccc(Cl)cc1)c1cn(C)cn1 (single isomer, unassigned) | SN40R2 cells (p53 mutated, MDM2 amplified osteosarcoma) | 39 |
| CCC(O)(c1cc(F)c2c(c1)C(=O)N(Cc1ncc(C#N)cn1)[C@@]2(OCC1(C#N)CC1)c1ccc(Cl)cc1)c1cn(C)cn1 (single isomer, unassigned) | SN40R2 cells (p53 mutated, MDM2 amplified osteosarcoma) | 37 |
| CCC(O)(c1cc(F)c2c(c1)C(=O)N(Cc1ncc(Cl)cn1)[C@@]2(OCCO)c1ccc(Cl)cc1)[C@H]1CC[C@H](O)CC1 (single isomer, unassigned) | SN40R2 cells (p53 mutated, MDM2 amplified osteosarcoma) | 26 |
| CCC(O)(c1cc(F)c2c(c1)C(=O)N(Cc1ncc(Cl)cn1)[C@@]2(OCC1(C(N)=O)CC1)c1ccc(Cl)cc1)c1cn(C)cn1 (stereo partly shown) | SN40R2 cells (p53 mutated, MDM2 amplified osteosarcoma) | 10 |
| CCC(O)(c1cc(F)c2c(c1)C(=O)N(Cc1ncc(Cl)cn1)[C@@]2(O[C@H]1CCOC1)c1ccc(Cl)cc1)c1cn(C)cn1 (single isomer, unassigned) | SN40R2 cells (p53 mutated, MDM2 amplified osteosarcoma) | 46 |
| [2H]C([2H])(O)C1(C([2H])([2H])O[C@]2(c3ccc(Cl)cc3)c3c(F)cc(C(C)(C)O)cc3C(=O)N2Cc2ncc(C#N)cn2)CC1 | SN40R2 cells (p53 mutated, MDM2 amplified osteosarcoma) | 19 |
| CN1CCC(C(C)(O)c2cc(F)c3c(c2)C(=O)N(Cc2ncc(Cl)cn2)[C@@]3(OCC2(CO)CC2)c2ccc(Cl)cc2)CC1 (single isomer, unassigned) | SN40R2 cells (p53 mutated, MDM2 amplified osteosarcoma) | 46 |
| CCC(O)(c1cc(F)c2c(c1)C(=O)N(Cc1ncc(C#N)cn1)[C@@]2(OCCO)c1ccc(Cl)cc1)[C@H]1CC[C@H](O)CC1 (stereo partly shown) | SN40R2 cells (p53 mutated, MDM2 amplified osteosarcoma) | 5 |

----------
# assay_notes: in vivo
# experimental_setup: monkey, 10 mg/kg

| compound | AUC / ng·h/mL |
| --- | --- |
| Nc1ncn([C@H]2CC(OP(=O)(O)OC[C@H]3O[C@@H](n4cnc5c(=O)[nH]c(N)nc54)CC3O)[C@@H](CO)O2)c(=O)n1 (some centres unmarked) | 1470 |
| Nc1ncn([C@H]2C[C@H](O)[C@@H](CO)O2)c(=O)n1 | 340 |

----------
Each record here notes measured inhibition at 10 µM.
# Test system: SN40R2 cells
# assay_notes: Protocol B: SN40R2 CellTiter-Glo luminescent cell viability assay
# experimental_setup: read-out: SN40R2 % inhibition at 10, Protocol B, SN40R2, at 10 μM

| compound | inhibition at 10 µM |
| --- | --- |
| CC[C@@](O)(c1cc(F)c2c(c1)C(=O)N(Cc1ncc(Cl)cn1)[C@@]2(OC)c1ccc(Cl)cc1)C1CCN(C2COC2)CC1 [Example 551] | 13% |
| CCC(O)(c1cc(F)c2c(c1)C(=O)N(Cc1ncc(Cl)cc1O)[C@@]2(O[C@H]1C[C@@H](O)C1)c1ccc(Cl)cc1)c1cn(C)cn1 (single isomer, unassigned) [Example 487] | 12% |
| CC[C@@](O)(c1cc(F)c2c(c1)C(=O)N(Cc1ncc(Cl)cn1)[C@@]2(O[C@H]1C[C@@H](O)C1)c1ccc(Cl)cc1)C1CCN(C)CC1 [Example 560] | 3% |
| CN1CCC(C(C)(O)c2cc(F)c3c(c2)C(=O)N(Cc2ncc(Cl)cn2)[C@@]3(OCC2(CO)CC2)c2ccc(Cl)cc2)CC1 (single isomer, unassigned) [Example 554] | 11% |
| CCC(O)(c1cc(F)c2c(c1)C(=O)N(Cc1ncc(C#N)cn1)[C@@]2(OCCO)c1ccc(Cl)cc1)[C@H]1CC[C@H](O)CC1 (some centres unmarked) [Example 510] | 9% |
| [2H]C([2H])(O)C([2H])([2H])O[C@]1(c2ccc(Cl)cc2)c2c(F)cc(C(O)(CC)C3(F)CCN(C)CC3)cc2C(=O)N1Cc1ncc(Cl)cn1 (some centres unmarked) [Example 580] | 13% |
| CCC(O)(c1cc(F)c2c(c1)C(=O)N(Cc1ncc(Cl)cn1)[C@@]2(O[C@H]1CCOC1)c1ccc(Cl)cc1)C1CCN(C)CC1 (single isomer, unassigned) [Example 449] | 19% |
| CCC(O)(c1cc(F)c2c(c1)C(=O)N(Cc1ncc(C#N)cn1)[C@@]2(O[C@H]1CCOC1)c1ccc(Cl)cc1)C1(F)CCNCC1 (single isomer, unassigned) [Example 547] | 4% |
| CCC(O)(c1cc(F)c2c(c1)C(=O)N(Cc1ccc(C#N)cn1)[C@@]2(O[C@H]1CCOC1)c1ccc(Cl)cc1)c1ccn(C)n1 (single isomer, unassigned) [Example 335] | 7% |
| CC[C@@](O)(c1cc(F)c2c(c1)C(=O)N(Cc1ncc(Cl)cn1)[C@@]2(OCC1(CO)CC1)c1ccc(Cl)cc1)C1CCN(C)CC1 [Example 556] | 14% |
| CC[C@@](O)(c1cc(F)c2c(c1)C(=O)N(Cc1ncc(Cl)cc1O)[C@@]2(O[C@H]1CCOC1)c1ccc(Cl)cc1)C1CCN(C)CC1 [Example 568] | 36% |

----------
# Tested on: SN40R2 cells
# assay_notes: Protocol B: SN40R2 CellTiter-Glo luminescent cell viability assay
# experimental_setup: read-out: SN40R2 IC50 (μM) (Protocol B)

| molecule | unit_descriptor | IC50 |
| --- | --- | --- |
| COc1nc(C)ccc1CN1C(=O)c2cc(C(C)(C)O)cc(F)c2[C@]1(OC)c1ccc(Cl)cc1 | µM | 13 |
| CO[C@]1(c2ccc(Cl)cc2)c2c(F)cc(C(C)(O)c3ncc[nH]3)cc2C(=O)N1Cc1ccc(Cl)cn1 (single isomer, unassigned) | µM | 13 |
| CO[C@]1(c2ccc(Cl)cc2)c2c(F)cc(C(C)(O)C3CCN(c4ncccn4)CC3)cc2C(=O)N1Cc1ccc(Cl)cn1 (single isomer, unassigned) | µM | 12 |
| CO[C@]1(c2ccc(Cl)cc2)c2c(F)cc(C(C)(O)C3CN(C)C3)cc2C(=O)N1Cc1ccc(Cl)cn1 (stereo partly shown) | µM | 11 |
| CO[C@]1(c2ccc(Cl)cc2)c2c(F)cc(C(C)(O)C3CCN(C)CC3)cc2C(=O)N1Cc1ccc(Cl)cn1 (stereo partly shown) | µM | 9 |
| CO[C@]1(c2ccc(Cl)cc2)c2ccc(C(C)(O)CN3CCN(C)CC3)cc2C(=O)N1Cc1ccc(Cl)cn1 (stereo partly shown) | µM | 7.1 |
| Cn1cc(C(C)(O)c2cc(F)c3c(c2)C(=O)N(Cc2ccc(Cl)cn2)[C@@]3(OCC2(CO)CC2)c2ccc(Cl)cc2)cn1 (stereo partly shown) | µM | 12 |
| CN1CCC(C(C)(O)c2cc(F)c3c(c2)C(=O)N(Cc2ccc(Cl)cn2)[C@@]3(OCC2(C(N)=O)CC2)c2ccc(Cl)cc2)CC1 (single isomer, unassigned) | µM | 13 |
| CO[C@]1(c2ccc(Cl)cc2)c2c(F)cc(C(C)(O)c3cn(C)c(C)n3)cc2C(=O)N1Cc1ccc(Cl)cn1 (stereo partly shown) | µM | 13 |
| CO[C@]1(c2ccc(Cl)cc2)c2c(F)cc(C(C)(O)c3nccs3)cc2C(=O)N1Cc1ccc(Cl)cn1 (single isomer, unassigned) | µM | 13 |
